meta.source: patent US6444850B1

System: Botrytis cinerae
Test: Fungicidal activity against cucumber gray mold rot (CGM) disease
Assay type: in vivo
Conditions: 50 ppm, control value
Method: Botrytis cinerae, which was isolated from cucumber infected thereby, was inoculated on a PDA agar medium and cultured under a 12L/12D cycle at 25° C. for 15 days to form spore. The spores were scraped, filtered through a gauze and then suspended in potato dextrose liquid medium at a concentration of 1×10^6 spore/ml. The spore suspension was sprayed on a cucumber plant having one leaf. […] L.A. on a leaf was measured to calculate an C.V.
molecules and their reported C. V. (%) CGM
Value expressed in %; do not type the unit.

Previously resolved entries follow.
COC=C(C(=O)OC)c1ccccc1COc1cccc(OC(F)=C(c2ccc(C)c(C)c2)C(F)(F)F)c1 [Compound 63]
25
COC=C(C(=O)OC)c1ccccc1COc1cccc(OC(F)=C(c2cccc(F)c2)C(F)(F)F)c1 [Compound 92]
16
CON=C(C(=O)OC)c1ccccc1COc1cccc(OC(F)=C(c2cccc(F)c2)C(F)(F)F)c1 [Compound 94]
0

Okay, now this molecule:
Data request: Specify measured C. V. (%) CGM for CNC(=O)C(=COC)c1ccccc1COc1cccc(OC(F)=C(c2cccc(Cl)c2)C(F)(F)F)c1 [Compound 85] .
Data returned: 16

====

Test system: Botrytis cinerae
Assay: Fungicidal activity against cucumber gray mold rot (CGM) disease
Assay type: in vivo
Conditions: 50 ppm, control value
Mark each entry true if its C. V. (%) CGM sits below 30%, and false for all others.

Previously resolved entries follow.
COC=C(C(=O)OC)c1ccccc1COc1cccc(OC(F)=Cc2ccc(Oc3ccccc3)cc2)c1
true
CON=C(C(=O)OC)c1ccccc1COc1cccc(OC(F)=C(c2ccccc2)C(F)(F)F)c1
true
CNC(=O)C(=COC)c1ccccc1COc1cccc(OC(F)=C(c2ccc(F)cc2)C(F)(F)F)c1
true
COC=C(C(=O)OC)c1ccccc1COc1cccc(OC(F)=Cc2ccc(OC)cc2)c1
true
COC=C(C(=O)OC)c1ccccc1COc1cccc(OC(F)=Cc2ccc(C)c(C)c2)c1
false
CNC(=O)/C(=C/OC)c1ccccc1COc1cccc(OC(F)=C(c2ccc(C)c(C)c2)C(F)(F)F)c1
true
CON=C(C(=O)OC)c1ccccc1COc1cccc(OC(F)=Cc2ccc(Oc3ccccc3)cc2)c1
true
COC=C(C(=O)OC)c1ccccc1COc1cccc(OC(F)=Cc2cc(C)c(C)cc2C)c1
false
CON=C(C(=O)OC)c1ccccc1COc1cccc(OC(F)=Cc2ccc(OC)cc2)c1
true
COC=C(C(=O)OC)c1ccccc1COc1cccc(OC(F)=Cc2ccccc2C)c1
true

Data request: Lab note: confirm whether the reported C. V. (%) CGM for this molecule is below 30%, equality not counting. molecule: `CNC(=O)C(=NOC)c1ccccc1COc1cccc(OC(F)=C(c2ccc(F)cc2)C(F)(F)F)c1`
Data returned: true

Data request: Lab note: confirm whether the reported C. V. (%) CGM for this molecule is below 30%, equality not counting. molecule: `CON=C(C(=O)OC)c1ccccc1COc1cccc(OC(F)=C(c2ccc(F)cc2)C(F)(F)F)c1`
Data returned: true

Data request: Lab note: confirm whether the reported C. V. (%) CGM for this molecule is below 30%, equality not counting. molecule: `CNC(=O)C(=NOC)c1ccccc1COc1cccc(OC(F)=C(c2cc(Cl)cc(Cl)c2)C(F)(F)F)c1`
Data returned: true

Data request: Lab note: confirm whether the reported C. V. (%) CGM for this molecule is below 30%, equality not counting. molecule: `COC(=O)C(=CSC)c1ccccc1COc1cccc(OC(F)=Cc2cccc(C)c2)c1`
Data returned: false

====

System: Pyricularia oryzae Carvara KA301
Format: in vivo
Conditions: 10 ppm, sprayed on Nakdong rice plant; control value from lesion area
compounds and their reported C. V. (%) Fungicidal Activities against RCB at 10 ppm (TABLE 6)
The answer should read as a number with its unit following.

CNC(=O)C(=NOC)c1ccccc1COc1cccc(OC(F)=C(c2cc(Cl)cc(Cl)c2)C(F)(F)F)c1
98%

Data request: Please indicate recorded C. V. (%) Fungicidal Activities against RCB at 10 ppm (TABLE 6) of `COC=C(C(=O)OC)c1ccccc1COc1cccc(OC(F)=Cc2ccc(C)c(C)c2)c1` measured with Pyricularia oryzae Carvara KA301.
Data returned: 97%

Data request: Please indicate recorded C. V. (%) Fungicidal Activities against RCB at 10 ppm (TABLE 6) of `CCc1ccc(C(=C(F)Oc2cccc(OCc3ccccc3C(=NOC)C(=O)NC)c2)C(F)(F)F)cc1` measured with Pyricularia oryzae Carvara KA301.
Data returned: 96%

Data request: Please indicate recorded C. V. (%) Fungicidal Activities against RCB at 10 ppm (TABLE 6) of `CON=C(C(=O)OC)c1ccccc1COc1cccc(OC(F)=Cc2cccc(C)c2)c1` measured with Pyricularia oryzae Carvara KA301.
Data returned: 90%

Data request: Please indicate recorded C. V. (%) Fungicidal Activities against RCB at 10 ppm (TABLE 6) of `CNC(=O)/C(=N/OC)c1ccccc1COc1cccc(OC(F)=C(c2ccc(C)c(C)c2)C(F)(F)F)c1` measured with Pyricularia oryzae Carvara KA301.
Data returned: 100%

Data request: Please indicate recorded C. V. (%) Fungicidal Activities against RCB at 10 ppm (TABLE 6) of `COC=C(C(=O)OC)c1ccccc1COc1cccc(OC(F)=Cc2cccc(F)c2)c1` measured with Pyricularia oryzae Carvara KA301.
Data returned: 100%

Data request: Please indicate recorded C. V. (%) Fungicidal Activities against RCB at 10 ppm (TABLE 6) of `CNC(=O)C(=NOC)c1ccccc1COc1cccc(OC(F)=C(c2cccc(F)c2)C(F)(F)F)c1` measured with Pyricularia oryzae Carvara KA301.
Data returned: 100%

Data request: Please indicate recorded C. V. (%) Fungicidal Activities against RCB at 10 ppm (TABLE 6) of `COC=C(C(=O)OC)c1ccccc1COc1cccc(OC(F)=Cc2cc(C)cc(C)c2)c1` measured with Pyricularia oryzae Carvara KA301.
Data returned: 95%

====

Test system: Botrytis cinerae
Test: Fungicidal activity against cucumber gray mold rot (CGM) disease
Type: in vivo
Conditions: 50 ppm, control value
Mark each entry YES if its C. V. (%) CGM sits below 30%, and NO for all others.

Previously resolved entries follow.
COC=C(C(=O)OC)c1ccccc1COc1cccc(OC(F)=C(c2cccc(C)c2)C(F)(F)F)c1
NO
CCc1ccc(C(=C(F)Oc2cccc(OCc3ccccc3C(=NOC)C(=O)NC)c2)C(F)(F)F)cc1
YES
CNC(=O)/C(=C/OC)c1ccccc1COc1cccc(OC(F)=Cc2ccccc2)c1
NO

Data request: Lab note: confirm whether the reported C. V. (%) CGM for this molecule is below 30%, equality not counting. molecule: `CCCCCCC(=C(F)Oc1cccc(OCc2ccccc2C(=COC)C(=O)OC)c1)C(F)(F)F`
Data returned: YES

Data request: Lab note: confirm whether the reported C. V. (%) CGM for this molecule is below 30%, equality not counting. molecule: `CON=C(C(=O)OC)c1ccccc1COc1cccc(OC(F)=C(c2cccc(Cl)c2)C(F)(F)F)c1`
Data returned: YES

Data request: Lab note: confirm whether the reported C. V. (%) CGM for this molecule is below 30%, equality not counting. molecule: `COC(=O)C(=CSC)c1ccccc1COc1cccc(OC(F)=Cc2cc(C)cc(C)c2)c1`
Data returned: YES

====

Test system: Botrytis cinerae
Assay: Fungicidal activity against cucumber gray mold rot (CGM) disease
Assay type: in vivo
Conditions: 50 ppm, control value
compounds and their reported C. V. (%) CGM
Value expressed in %; do not type the unit.

Previously resolved entries follow.
COC=C(C(=O)OC)c1ccccc1COc1cccc(OC(F)=C(c2ccc3c(c2)OCO3)C(F)(F)F)c1 [Compound 81]
0
CNC(=O)C(=COC)c1ccccc1COc1cccc(OC(F)=Cc2cccc(C)c2)c1 [Compound 7]
33
COC=C(C(=O)OC)c1ccccc1COc1cccc(OC(F)=Cc2ccc(Cl)cc2)c1 [Compound 37]
58
CNC(=O)C(=COC)c1ccccc1COc1cccc(OC(F)=C(c2ccc(Br)cc2)C(F)(F)F)c1 [Compound 101]
21
CNC(=O)C(=NOC)c1ccccc1COc1cccc(OC(F)=C(c2ccc(C)cc2)C(F)(F)F)c1 [Compound 56]
0

Okay, now this compound:
Data request: Specify measured C. V. (%) CGM for COC(=O)C(=CSC)c1ccccc1COc1cccc(OC(F)=C(c2ccc(C)cc2)C(F)(F)F)c1 [Compound 57] .
Data returned: 9

====

molecules and their reported C. V. (%) CGM
System: Botrytis cinerae
Assay: Fungicidal activity against cucumber gray mold rot (CGM) disease
Type: in vivo
Conditions: 50 ppm, control value
Value expressed in %; do not type the unit.

CO/C=C(/C(=O)OC)c1ccccc1COc1cccc(OC(F)=Cc2ccccc2)c1
62

Okay, now this molecule:
Data request: Specify measured C. V. (%) CGM for `CNC(=O)C(=COC)c1ccccc1COc1cccc(OC(F)=Cc2ccc(C)c(C)c2)c1` .
Data returned: 63

====

Tested on: Botrytis cinerae
Experiment: Fungicidal activity against cucumber gray mold rot (CGM) disease
Format: in vivo
Details: 50 ppm, control value
molecules and their reported C. V. (%) CGM
Value expressed in %; do not type the unit.

CNC(=O)C(=COC)c1ccccc1COc1cccc(OC(F)=Cc2cccc(F)c2)c1
35

Data request: Please indicate recorded C. V. (%) CGM of `CCCCCCC(=C(F)Oc1cccc(OCc2ccccc2C(=COC)C(=O)NC)c1)C(F)(F)F` measured with Botrytis cinerae.
Data returned: 21

Data request: Please indicate recorded C. V. (%) CGM of `COC=C(C(=O)OC)c1ccccc1COc1cccc(OC(F)=Cc2cc(C)cc(C)c2)c1` measured with Botrytis cinerae.
Data returned: 50
